Tested on: IGROV-1
Experiment: NCI tumour cell line growth inhibition, 48 h
The source made the active and inactive calls. Cut-off read from the data, not from the text of the source: active = GI50 up to about 1.1 µM and inactive = higher.
measuredEndpoint: GI50

// worked examples, GI50 included
compound	GI50
CC(C)c1cc2c(O)c(c1)Cc1cc(C(C)C)cc(c1O)Cc1cc(C(C)C)cc(c1O)Cc1cc(C(C)C)cc(c1O)Cc1cc(C(C)C)cc(c1O)Cc1cc(C(C)C)cc(c1O)C2	> 100 µM (inactive)
CNC1C(O)C(OC2C(N)CC(N)C(OC3OC(C(C)O)C(O)C(O)C3N)C2O)OCC1(C)O (centres undefined)	> 100 µM (inactive)
CNc1nc2c(C)ccc3nc(N(C)C)nc-3c2n1C	> 10 µM (inactive)
CCN(CC)CCCN1CCc2c([nH]c3ccccc23)C1c1cccnc1 (centres undefined)	> 100 µM (inactive)
CC1=CC[C@H](C[C@H](C#CCCCC2OCCO2)O[Si](C(C)C)(C(C)C)C(C)C)C(=O)CC1	> 100 µM (inactive)
Cc1cc(C2CC(O)C(CO)O2)c(F)cc1F (centres undefined)	> 100 µM (inactive)
O=c1c2ccc3cccc4c(=O)cc(c5ccccc15)-c2c34	> 100 µM (inactive)
Oc1ccc(O)c(Sc2nnc(CCCCCCCCc3nnc(Sc4cc(O)ccc4O)o3)o2)c1	96.8 µM (inactive)
C(CCc1nnc2c(n1)CCCC2)Cc1nnc2c(n1)CCCC2	> 100 µM (inactive)
[N-]=[N+]=CC(=O)C1CCCN1C(=O)c1ccccc1 (centres undefined)	> 10 µM (inactive)

Please give GI50 for each item listed below.
1. Nc1c(C(=O)c2ccccc2)[nH]c(NCc2ccccc2)c1C(=S)Nc1ccccc1
2. O=C(O)COc1c(Cl)cc(Cl)c2cccnc12
3. O=C(O)CCC(NC(=O)c1ccccc1)C(=O)O (centres undefined)
4. Cc1ccc(C)c(N2C/C(=N\NC(=O)CC#N)C(c3nc4ccccc4s3)C(=O)C2=O)c1 (centres undefined)
5. C=C(C)[C@@]12C[C@H](OC(=O)[C@H](O)[C@@H](NC(=O)c3ccccc3)c3ccccc3)C(C)=C1[C@@H](OC(C)=O)C(=O)[C@@]1(C)C([C@@H]2OC(=O)c2cc(F)cc(F)c2)C2(OC(C)=O)CO[C@@H]2C[C@@H]1O (some centres undefined)

["> 100 µM (inactive)", "96.4 µM (inactive)", "> 100 µM (inactive)", "> 100 µM (inactive)", "0.361 µM (active)"]

Please give GI50 for each item listed below.
1. Cc1nnc2n1N=C(c1cc(F)c(Cl)cc1Cl)/C(=C/c1ccc(Cl)cc1)S2
2. COc1ccc(C(OCC2OC(n3ccc(Oc4c(F)c(F)c(F)c(F)c4F)nc3=O)CC2OP(OCCC#N)N(C(C)C)C(C)C)(c2ccccc2)c2ccc(OC)cc2)cc1 (centres undefined)
3. COc1ccc(NC(=O)C/C(C)=N\N=C(N)N)c([N+](=O)[O-])c1
4. CCOC(=O)CNC(=O)CNC(=O)CNC(=O)CNNc1c(OCc2ccccc2)c(=O)c1=O

1: 19.6 µM (inactive); 2: > 100 µM (inactive); 3: > 100 µM (inactive); 4: > 100 µM (inactive)
